IC50: recorded values
- assay.target: IκBα ubiquitinating enzyme (SCF complex: ROC1, Cullin1, Skp1, His-TrCP1; with E1, UbcH5b) (Homo sapiens, UniProt P62877+P63208+Q13616+Q9Y297)
- Construct: His (polyhistidine); made in house; host or cells: insect cells (baculovirus) for the SCF complex and His-E1; E. coli for His-UBCH5b
- Sequence (Q9Y297 whole entry): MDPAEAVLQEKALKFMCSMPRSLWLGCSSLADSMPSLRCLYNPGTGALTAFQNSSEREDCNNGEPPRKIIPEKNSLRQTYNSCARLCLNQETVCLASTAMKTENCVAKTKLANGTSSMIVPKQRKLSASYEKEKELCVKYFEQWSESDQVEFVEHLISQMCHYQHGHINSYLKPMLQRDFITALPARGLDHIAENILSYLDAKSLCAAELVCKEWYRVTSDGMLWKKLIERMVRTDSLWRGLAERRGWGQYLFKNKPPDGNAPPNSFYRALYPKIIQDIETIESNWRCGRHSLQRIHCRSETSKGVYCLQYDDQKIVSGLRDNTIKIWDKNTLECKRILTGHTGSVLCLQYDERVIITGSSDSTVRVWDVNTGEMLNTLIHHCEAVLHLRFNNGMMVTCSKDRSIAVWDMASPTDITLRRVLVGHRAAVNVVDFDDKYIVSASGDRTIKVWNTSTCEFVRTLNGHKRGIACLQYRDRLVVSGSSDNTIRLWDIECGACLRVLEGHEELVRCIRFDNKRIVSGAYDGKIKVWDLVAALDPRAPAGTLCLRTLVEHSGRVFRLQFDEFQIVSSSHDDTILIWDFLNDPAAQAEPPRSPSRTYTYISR
- Sequence (Q13616 whole entry): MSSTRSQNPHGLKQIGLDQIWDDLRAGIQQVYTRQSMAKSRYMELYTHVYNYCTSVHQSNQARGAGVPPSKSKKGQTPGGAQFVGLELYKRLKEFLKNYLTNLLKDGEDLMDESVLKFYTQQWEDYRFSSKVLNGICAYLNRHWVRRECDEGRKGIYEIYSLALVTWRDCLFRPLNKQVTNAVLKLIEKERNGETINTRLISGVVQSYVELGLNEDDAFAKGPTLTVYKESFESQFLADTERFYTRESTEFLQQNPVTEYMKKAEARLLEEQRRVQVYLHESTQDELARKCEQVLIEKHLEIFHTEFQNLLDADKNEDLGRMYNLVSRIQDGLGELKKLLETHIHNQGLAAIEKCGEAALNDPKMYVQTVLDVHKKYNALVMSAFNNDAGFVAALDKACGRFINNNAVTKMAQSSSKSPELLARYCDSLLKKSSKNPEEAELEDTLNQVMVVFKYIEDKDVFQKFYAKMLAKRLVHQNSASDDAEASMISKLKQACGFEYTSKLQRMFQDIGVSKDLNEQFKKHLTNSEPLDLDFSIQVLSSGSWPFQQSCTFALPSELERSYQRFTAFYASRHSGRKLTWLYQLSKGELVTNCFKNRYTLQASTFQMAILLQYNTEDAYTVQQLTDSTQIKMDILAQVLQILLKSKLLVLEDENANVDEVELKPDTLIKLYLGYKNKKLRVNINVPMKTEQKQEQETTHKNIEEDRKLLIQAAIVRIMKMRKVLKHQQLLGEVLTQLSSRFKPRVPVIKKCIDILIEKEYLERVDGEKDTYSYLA
- Sequence (P63208 whole entry): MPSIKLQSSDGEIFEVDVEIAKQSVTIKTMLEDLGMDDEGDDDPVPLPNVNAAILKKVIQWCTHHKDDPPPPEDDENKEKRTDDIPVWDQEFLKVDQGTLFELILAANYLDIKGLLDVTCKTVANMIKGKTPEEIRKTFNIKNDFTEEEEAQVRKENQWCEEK
- Sequence (P62877 whole entry): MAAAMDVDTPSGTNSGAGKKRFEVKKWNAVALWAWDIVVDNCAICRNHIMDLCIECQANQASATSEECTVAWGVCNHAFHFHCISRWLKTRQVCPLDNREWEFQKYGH
- test: Measurement of ubiquitinating enzyme activity (IκBα ubiquitination, time-resolved fluorescence with Eu(K)-labeled ubiquitin and XL665-labeled anti-GST antibody)
- Type: biochemical
- stated.conditions: enzyme activity inhibition test, method (1), Table 5; read-out: EVALUATION
- Experimental: Method 1: Measurement of ubiquitinating enzyme activity A recombinant vector His-UBCH5b containing a polyhistidine tag (His) and UBCH5b was prepared. E. coli was transformed with the vector, the protein was expressed, and affinity purification was carried out using Ni-NTA agarose (Qiagen). […]
measure: IC50

• O=C(O)c1ccc(N2N=C(c3ccoc3)/C(=C/c3cccc4nccnc34)C2=O)cc1 [Compound 329] = 10 to 20 µM
• COc1cc(/C=C2\C(=O)N(c3ccccc3)N=C2Cc2ccccc2)ccc1O [Compound 22] = 10 to 20 µM
• CC1=NN(c2ccc(C(=O)NCC(C)O)cc2)C(=O)C1=Cc1ccc2c(c1)OCCO2 (centres unmarked) [Compound 400] = < 40 µM
• CC1=NN(c2ccc(C(=O)O)cc2)C(=O)/C1=C\c1ccsc1 [Compound 511] = < 40 µM
• O=C(O)c1ccc(N2N=C(Cc3ccccc3)/C(=C/c3ccc(N4CCCC4)cc3)C2=O)cc1 [Compound 269] = 10 to 20 µM
• CCCCC1=NN(c2ccccc2)C(=O)/C1=C\c1ccc(CO)o1 [Compound 56] = 10 to 20 µM
• O=C1/C(=C\c2ccc(CO)o2)C(c2ccncc2)=NN1c1ccccc1 [Compound 44] = < 40 µM
• O=C1/C(=C\c2ccc(CO)o2)C(c2cccnc2)=NN1c1ccccc1 [Compound 64] = < 40 µM

All values here come from patent EP1900728A1.
